tgt: rat intestinal α-glucosidase
experimental.protocol: Mammalian α-glucosidase inhibition assay (rat intestinal acetone powder, pNPG substrate)
Assay type: biochemical
study.conditions: rat intestinal α-glucosidase, pNPG, pH 6.9, 37 °C; na: no activity
measured.attribute: IC50 (µM)
Hi! Could you send only the number? It should be in µM, unit omitted.

Consider the following illustrative entries.
>>> assay_result("C[C@H]1O[C@H](O[C@H]2[C@H](O)[C@@H](O)[C@@H](O[C@H]3[C@H](O)[C@@H](O)C(O)O[C@@H]3CO)O[C@@H]2CO)[C@H](O)[C@@H](O)[C@@H]1N[C@H]1C=C(CO)[C@@H](O)[C@H](O)[C@H]1O (some centres unmarked) [Acarbose, reference compound]")
37.5
>>> assay_result("O=C1c2ccccc2C(=O)N1C(Cc1ccccc1)c1nc2ccccc2[nH]1 (centres unmarked)")
48.5
>>> assay_result("O=C1c2ccccc2C(=O)N1C(Cc1ccc(O)cc1)C1=Nc2cccc3cccc(c23)N1 (centres unmarked)")
21.8
>>> assay_result("O=C1c2ccccc2C(=O)N1C(Cc1ccc(O)cc1)c1nc2ccccc2[nH]1 (centres unmarked)")
36.7

Query :: Lab note: need IC50 with rat intestinal α-glucosidase for entry O=C1c2ccccc2C(=O)N1C(Cc1ccccc1)C1=Nc2cccc3cccc(c23)N1 (centres unmarked) , please look it up.
Result :: 35.9
